Measured Improvement of individual entries
Target: T1, human tissue factor pathway inhibitor (TFPI) (human, UniProt P10646 29-304, limits assumed)
T1 construct: bought; also called hTFPI; human TFPI
T1 sequence (looked up): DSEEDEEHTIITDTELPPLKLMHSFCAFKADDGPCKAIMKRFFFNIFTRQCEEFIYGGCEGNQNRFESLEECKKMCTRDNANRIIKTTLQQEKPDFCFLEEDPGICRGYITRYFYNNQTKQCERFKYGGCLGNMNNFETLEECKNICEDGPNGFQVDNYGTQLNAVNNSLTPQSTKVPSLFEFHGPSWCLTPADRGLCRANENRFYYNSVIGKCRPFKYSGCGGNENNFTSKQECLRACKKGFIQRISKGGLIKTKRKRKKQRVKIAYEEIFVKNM
Assay: SPR, TFPI immobilized
result.type: Improvement (fold)

{"binder": "2A8 HC_G33P (Fab, V domains shown, also called 2A8-1) VH: QVQLVESGGGLVQPGGSLRLSCAASGFTFRSYPMSWVRQAPGKGLEWVSSIRGSSSSTYYADSVKGRFTISRDNSKNTLYLQMNSLRAEDTAVYYCARKYRYWFDYWGQGTLVTVSS VL: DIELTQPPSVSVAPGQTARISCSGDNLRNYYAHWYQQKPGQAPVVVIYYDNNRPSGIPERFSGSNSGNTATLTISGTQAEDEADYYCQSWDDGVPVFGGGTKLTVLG", "result.type": "Improvement", "numeric.result": 2.7}
{"binder": "2A8 HC_K99L (Fab, V domains shown, also called 2A8-9) VH: QVQLVESGGGLVQPGGSLRLSCAASGFTFRSYGMSWVRQAPGKGLEWVSSIRGSSSSTYYADSVKGRFTISRDNSKNTLYLQMNSLRAEDTAVYYCARLYRYWFDYWGQGTLVTVSS VL: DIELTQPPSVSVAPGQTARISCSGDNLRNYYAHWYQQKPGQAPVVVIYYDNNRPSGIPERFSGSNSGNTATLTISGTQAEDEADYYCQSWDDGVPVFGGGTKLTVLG", "result.type": "Improvement", "numeric.result": 7.22}
{"binder": "2A8 LC_D91L (Fab, V domains shown, also called 2A8-16) VH: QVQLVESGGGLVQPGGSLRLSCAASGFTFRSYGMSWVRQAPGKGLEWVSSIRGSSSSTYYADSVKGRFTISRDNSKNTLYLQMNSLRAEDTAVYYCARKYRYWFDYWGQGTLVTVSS VL: DIELTQPPSVSVAPGQTARISCSGDNLRNYYAHWYQQKPGQAPVVVIYYDNNRPSGIPERFSGSNSGNTATLTISGTQAEDEADYYCQSWLDGVPVFGGGTKLTVLG", "result.type": "Improvement", "numeric.result": 2.24}

Data origin, for the record: patent USRE47150
